Literature pKi values, system: Receptor-interacting serine/threonine-protein kinase 1 (Homo sapiens, UniProt Q13546).
The quantity pKi is defined as the negative base-10 logarithm of the molar concentration.

I would be grateful if you could share the reported pKi for [O-][S@+](c1nc2n(n1)[C@H](c1ccccc1Cl)CC2)C(F)F .
8.10

Cool, now [O-][S+](c1nc2n(n1)C(c1ccccc1)CC2)C(F)(F)F (stereo not shown)
7.05

Would you mind doing CN1C(=O)[C@@H](NC(=O)c2ncn(Cc3ccccc3)n2)CCc2c1ccc(=O)n2C (single isomer, unassigned) as well?
6.63

What do you get for COC1CN(C(=O)c2nc3n(n2)C(c2ccccc2)CC3)C1 (racemic) ?
5.86

====

This section presents pKi values reported for Receptor-interacting serine/threonine-protein kinase 1 (Homo sapiens) in the literature.
The read-out pKi is expressed as -log10 of concentration in moles per litre.

Look over these answered cases.
molecule	targetOrSystem	val
CN(C(=O)c1nc2n(n1)[C@H](c1ccccc1)C[C@@H]2F)c1ccccc1 (racemic)	Receptor-interacting serine/threonine-protein kinase 1 (Homo sapiens)	6.21
FC1CC(c2ccccc2)n2nc(C3CC3)nc21 (racemic)	Receptor-interacting serine/threonine-protein kinase 1 (Homo sapiens)	6.49
OC(c1nc2n(n1)[C@H](c1ccccc1)C[C@@H]2F)[C@@H]1C[C@H]1F (some centres unmarked)	Receptor-interacting serine/threonine-protein kinase 1 (Homo sapiens)	6.92
CN1C(=O)[C@@H](NC(=O)c2ncn(Cc3ccccc3F)n2)CCc2cn(CC3CC3)c(=O)cc21 (single isomer, unassigned)	Receptor-interacting serine/threonine-protein kinase 1 (Homo sapiens)	7.41
O=S(=O)(c1nc2n(n1)[C@H](c1ccccc1F)C[C@@H]2F)C1CC1F (stereo in doubt)	Receptor-interacting serine/threonine-protein kinase 1 (Homo sapiens)	8.00
F[C@H]1C[C@@H](c2ccccc2)n2nc(-n3ccc(C(F)(F)F)n3)nc21 (single isomer, unassigned)	Receptor-interacting serine/threonine-protein kinase 1 (Homo sapiens)	6.21
N#C[C@H]1C[C@H](S(=O)(=O)c2nc3n(n2)[C@H](c2ccccc2)C[C@@H]3F)C1	Receptor-interacting serine/threonine-protein kinase 1 (Homo sapiens)	7.92
CN(CC(F)(F)F)C(=O)c1nc2n(n1)[C@H](c1ccccc1)C[C@@H]2F (racemic)	Receptor-interacting serine/threonine-protein kinase 1 (Homo sapiens)	7.00
F[C@H]1C[C@@H](c2ccccc2)n2nc(-n3cccn3)nc21 (single isomer, unassigned)	Receptor-interacting serine/threonine-protein kinase 1 (Homo sapiens)	6.80
O=S(=O)(c1nc2n(n1)[C@H](c1cc(F)cc(F)c1)C[C@@H]2F)[C@H]1C[C@H](F)C1 (single isomer, unassigned)	Receptor-interacting serine/threonine-protein kinase 1 (Homo sapiens)	7.64

Alright, here's another molecule for you.
Which pKi value belongs to O=S(=O)(c1nc2n(n1)[C@H](c1cccc(Cl)c1F)C[C@@H]2F)[C@@H]1C[C@H]1F ?
8.15

====

Note to self: these compounds have log10(Ki) reported for Receptor-interacting serine/threonine-protein kinase 1 (Homo sapiens) in various publications.
Friendly reminder: values = log10 of Ki, unit nM.

compound	log10(Ki)
CC1(F)CN(C(=O)c2nc3n(n2)[C@@H](c2ccccc2)CC3(F)F)C1 (single isomer, unassigned)	1.68
[O-][S@+](CF)c1nc2n(n1)[C@H](c1ccccc1)C[C@@H]2F	1.95
Cc1ncn(-c2nc3n(n2)[C@H](c2ccccc2)C[C@@H]3F)c1C (single isomer, unassigned)	2.26

Sample CN(CC(F)F)C(=O)c1nc2n(n1)[C@H](c1ccccc1)C[C@@H]2F (racemic) — what was its log10(Ki)?
1.62

Also need O=C(c1nc2n(n1)[C@@H](c1ccccc1)CC2(F)F)N1CC(F)C1 (single isomer, unassigned) , thanks.
1.85

Again, but for O=S(=O)(c1nc2n(n1)[C@H](c1ccccc1)C[C@@H]2F)[C@@H]1C[C@H]1F (single isomer, unassigned)
0.70
